System: CAKI-1
assay_overview: NCI tumour cell line growth inhibition, 48 h
Calls of active or inactive are those of the source. Rule as the data show it: active = GI50 up to about 1.1 µM and inactive = higher.
Below, each entry is listed with its recorded GI50.
recorded_metric: GI50

>>> df
                                    molecule  recorded_metric                result
 0  CC/C=N\N1C(N)=C(C#N)C(C#N)(C#N)C1CC (configuration not stated)             GI50   > 100 µM (inactive)
 1  Cc1nn(C2OC(CO)C(O)C(F)C2O)c(=O)[nH]c1=O (configuration not stated)             GI50   > 100 µM (inactive)
 2  O=C(OCN1C(=O)C2C3C=CC(C2C1=O)C1C2C(=O)N(COC(=O)C4CCCN4)C(=O)C2C31)C1CCCN1 (configuration not stated)             GI50  > 86.9 µM (inactive)
 3  Cc1ccc(-c2cc(-c3ccco3)c(C#N)c(=O)n2C2OC(OC(=O)c3ccccc3)C(OC(=O)c3ccccc3)C2OC(=O)c2ccccc2)cc1 (configuration not stated)             GI50   > 100 µM (inactive)
 4  COc1ccc(/C=C2\CN(C)CC3C2=NN(c2ccccc2)C3c2ccc(OC)cc2)cc1 (configuration not stated)             GI50      60 µM (inactive)
 5  CC(=O)[C@]1(C)[C@H](C)O[C@](C)(CO)[C@H]1O[Si](C)(C)c1ccccc1             GI50    17.9 µM (inactive)
 6  O=C1CCC(c2ccccc2)C(O)(C(=O)O)C1 (configuration not stated)             GI50   > 100 µM (inactive)
 7  CCOC(=O)c1nnsc1NC(=O)NCCCCCCn1c(=O)n(CCCCCCNC(=O)Nc2snnc2C(=O)OCC)c(=O)n(CCCCCCNC(=O)Nc2snnc2C(=O)OCC)c1=O             GI50    76.9 µM (inactive)
 8                CNC(=O)CNC(=O)CCC(=O)N(C)C             GI50   > 100 µM (inactive)
 9  C[C@H](CCC(=O)O)[C@H]1CC[C@@]2(C)[C@@H]3C(=O)C[C@H]4C(C)(C)[C@@H](O)CC[C@]4(C)[C@H]3C(=O)C[C@]12C             GI50   > 100 µM (inactive)
10  COc1ccc(/C=c2/sc3n(c2=O)NC2(CCC(C)CC2)NN=3)cc1 (configuration not stated)             GI50   > 100 µM (inactive)
11  COc1ccc(C2CC(c3c(O)ccc4ccccc34)=NN2)cc1OC (configuration not stated)             GI50     4.9 µM (inactive)
12  C#CCOCC12C=CC(O1)C1C(=O)OCC12 (configuration not stated)             GI50   > 100 µM (inactive)
13  Clc1ccc(-c2nnc(C34CC5CC(CC(C5)C3)C4)o2)cc1             GI50   > 100 µM (inactive)
14  CC(CN(C)C)C(=O)/C=C/c1ccc(Cl)c(Cl)c1 (configuration not stated)             GI50       2 µM (inactive)
15            N#CCCN(CCC#N)c1ccc(C(=O)NN)cc1             GI50   > 100 µM (inactive)
16  CC1C(C#N)(C#N)C(C#N)=C(N)C1(Cl)[N+](=O)[O-] (configuration not stated)             GI50     5.4 µM (inactive)

* * *

Test system: MOLT-4
assay_overview: NCI tumour cell line growth inhibition, 48 h
Active and inactive are the calls of the source. No stated cut-off is given here; in the data, active = GI50 up to about 1.1 µM and inactive = higher.
Outcomes: TRUE = active, FALSE = inactive

molecule	tested_on	qualitative_label
O=C(CCC1CCCCC1)NCc1ccc(C(=O)O)cc1	MOLT-4	FALSE
O=c1[nH]nc(-c2ccccc2)n1/N=C\c1ccccc1	MOLT-4	FALSE
N#CC1=C(O)NC(O)=C(C#N)C1c1ccc(C2C(C#N)=C(O)NC(O)=C2C#N)cc1	MOLT-4	FALSE
CN1C(=O)C(CC(=O)O)NC1=S (centres undefined)	MOLT-4	FALSE
O=C1CC(c2ccccc2)=Nc2ccccc2N1	MOLT-4	FALSE
CC(O[Si](c1ccccc1)(c1ccccc1)C(C)(C)C)[C@H](NC(=O)OC(C)(C)C)C(=O)O[Si](c1ccccc1)(c1ccccc1)C(C)(C)C (some centres undefined)	MOLT-4	FALSE
C=CC(C)CCC(C/C=C(\C)CCC=C(C)C)C(=C)CCCC(C)C (centres undefined)	MOLT-4	FALSE
CNc1ccc([S+]([O-])Nc2ccccc2)cc1 (centres undefined)	MOLT-4	FALSE
Cc1c(Cl)ccc2c1NC(=O)C2(O)CC(=O)c1cccc2ccccc12 (centres undefined)	MOLT-4	FALSE
O=C(COC(=O)c1cccc2c(=O)c3ccccc3[nH]c12)Nc1ccc(S(=O)(=O)Nc2ncccn2)cc1	MOLT-4	FALSE
C[n+]1c(-c2ccc(/C=N\NC(=O)c3ccc(C(=O)N/N=C/c4ccc(-c5cn6ccsc6[n+]5C)cc4)cc3)cc2)cn2ccsc21	MOLT-4	FALSE
CCCCn1/c(=N/C(=S)N(C)C)ss/c1=N\C(=S)N(C)C	MOLT-4	FALSE
O=C1CCC[C@]2(CCCC(=O)N2)C1	MOLT-4	FALSE
CCC/N=C1\S/C(=C/c2ccc(OC)c(OC)c2)C(=O)N1c1ccccc1	MOLT-4	FALSE
O=C1NC(=S)NC(=O)C1=Cc1ccc([N+](=O)[O-])o1	MOLT-4	FALSE
[O-][S@@+]1c2ccc3ccccc3c2N[C@@H]2[C@H]1[C@H]1C=C[C@@H]2C1	MOLT-4	FALSE
O=C1O[C@H](COC(=O)c2ccccc2)[C@@H](OC(=O)c2ccccc2)C=C1OC(=O)c1ccccc1	MOLT-4	FALSE
COc1cc2c3cc1Oc1c(OC)c(OC)cc4c1[C@@H](Cc1ccc(O)c(c1)Oc1ccc(cc1)C[C@@H]3N(C)CC2)N(C)CC4.c1ccccc1	MOLT-4	FALSE
O=C(CC(C(=O)c1cccs1)c1ccsc1)c1ccc(Cl)cc1 (centres undefined)	MOLT-4	FALSE
CN(C)c1ccc(/C=C2\CNC/C(=C\c3ccc(N(C)C)cc3)C2=O)cc1	MOLT-4	FALSE
CC1(Br)C(=O)NC(=O)N(C2CC(N=[N+]=[N-])C(CO)O2)C1N=[N+]=[N-] (centres undefined)	MOLT-4	FALSE
O=c1c2cccnc2ncn1CCCN1CCCC1	MOLT-4	FALSE
Cc1ccc(-c2cc(-c3ccco3)c(C#N)c(=O)n2C2OC(OC(=O)c3ccccc3)C(OC(=O)c3ccccc3)C2OC(=O)c2ccccc2)cc1 (centres undefined)	MOLT-4	FALSE
COC(=O)C1=CSC2(S1)C(C(=O)OC)=CSc1c2ss/c1=N\c1ccccc1 (centres undefined)	MOLT-4	TRUE

* * *

System: UO-31
assay_overview: NCI tumour cell line growth inhibition, 48 h
Active and inactive are the calls of the source. No stated cut-off is given here; in the data, active = GI50 up to about 1.1 µM and inactive = higher.
Outcomes: active, inactive

                                    compound  qualitative_label
 0  COc1cc(C2C3=C(CCCC3=O)N(c3ccc(C)cc3)C3=C2C(=O)CCC3)c([N+](=O)[O-])cc1OC           inactive
 1                 C/C=C/C=C/c1nc(C#N)c(N)o1           inactive
 2  Cc1cn(C2CC(N=[N+]=[N-])C(C(=O)O)O2)c(=O)[nH]c1=O (stereo not given)           inactive
 3   COc1cc(Br)cc2cc(-c3cn4ccsc4n3)c(=O)oc12           inactive
 4  Nc1nc(Cl)nc2c1ncn2C1CCC(CO)O1 (stereo not given)           inactive
 5  CN(C)CCCNC(CC#N)CCC#N (stereo not given)           inactive
 6  CN(C)C(=S)N1C(=S)N(c2ccccc2)C(=N/c2ccccc2)/C1=N\c1ccccc1           inactive
 7  C=CC1=C(C)c2cc3[nH]c(cc4nc(cc5[nH]c(cc1n2)c(C)c5CCC(=O)N(CC)CC)C(CCC(=O)N(CC)CC)=C4C)c(C)c3C=C           inactive
 8  CC(C)(C)CN1[C@@H]2CCCC[C@H]2N(CC(C)(C)C)P1(=O)C(O)/C=C/c1ccccc1 (stereo not given in full)           inactive
 9        COc1ccc([Se]c2ccc(OC)cc2OC)c(OC)c1           inactive
10              c1cc(CSc2ncnc3[nH]cnc23)ccn1           inactive
11  CCCC[C@@H](C)/C=C1\CN2CCC[C@H]2[C@@](C)(O)[C@@H]1O           inactive
12  Cc1cccc(C(C)(C)C)c1NC(=O)C(=O)C(C(=O)/C=C\c1ccccc1)C1OC(=O)c2ccccc21 (stereo not given)           inactive
13  CCn1c(SCC(=O)NNC(=S)Nc2ccc(C)cc2)nc2ccccc2c1=O           inactive
14  Cc1cccc2c(N)c3cccc(C(=O)NCC[N+](C)(C)Cc4ccc(S(C)(=O)=O)cc4)c3nc12           inactive
15    Cc1cc(C)c(C)c(-n2[nH]c(=O)n(C)c2=O)c1C           inactive
16  C[C@@H]1OC2(O)[C@H]3CCCN3S(=O)(=O)CCN2C1=O (stereo not given in full)           inactive
17  CCC/N=C1\S/C(=C/c2ccc(OC)c(OC)c2)C(=O)N1c1ccccc1           inactive
18  COc1ccc(-c2oc3c(OC)c(OC)c(OC)c(O)c3c(=O)c2OC)cc1O             active
19  C=C1C[C@@H](O)[C@@H](Br)C(C)(C)[C@]12CCC(C)(Cl)C(Br)C2 (stereo not given in full)           inactive

// provenance: ChEMBL document CHEMBL1201862
